Just for reference, patent US20260130395A1 is where these values come from.

assay: Stability of cannabinoid compounds and Vitamin E components in Beverage 1 (AB White) by LCMSMS; format: physicochemical; details: AB White stored at 8° C.; 1 days
Examples of compounds with documented Stability of Plant-Derived Cannabinoid Compounds in AB White, 8° C. follow.
Parameter: Stability of Plant-Derived Cannabinoid Compounds in AB White, 8° C. (µg/mL)

{"columns": ["Compound", "Result value"],
 "data": [
  ["CCCCCc1cc(O)c2c(c1)OC1(C)CCC3C1C2C3(C)C (stereo not drawn) [CBL, cannabicyclol]", 0.541],
  ["CCCCCc1cc(O)c2c(c1)OC(C)(CCC=C(C)C)C=C2 (stereo not drawn) [CBC, cannabichromene]", 0.314],
  ["CCCc1cc(O)c2c(c1)OC(C)(C)[C@@H]1CCC(C)=C[C@@H]21 [THCV, delta-9-tetrahydrocannabivarin]", 3.54]
]}

---

assay: Stability of cannabinoid compounds and Vitamin E components in Beverage 2 (AB Red) by LCMSMS; format: physicochemical; conditions: stored at 8° C., 18 days
Examples of compounds with documented Stability of Plant-Derived Cannabinoid Compounds in AB Red follow.
Parameter: Stability of Plant-Derived Cannabinoid Compounds in AB Red (µg/mL)

{"columns": ["Compound", "Measurement unit", "Result value"],
 "data": [
  ["CCCCCc1cc(O)c2c(c1)OC(C)(CCC=C(C)C)C=C2 (stereo not drawn)", "µg/mL", 0.289],
  ["CCCc1cc(O)c2c(c1)OC(C)(C)[C@@H]1CCC(C)=C[C@@H]21 [THCV, delta-9-tetrahydrocannabivarin]", "µg/mL", 3.17],
  ["CCCCCc1cc(O)c2c(c1)OC1(C)CCC3C1C2C3(C)C (stereo not drawn)", "µg/mL", 0.513],
  ["CCCCCc1cc(O)c2c(c1)OC(C)(C)c1ccc(C)cc1-2", "µg/mL", 2.78],
  ["CCCCCc1cc2c(c(O)c1C(=O)O)[C@@H]1C=C(C)CC[C@H]1C(C)(C)O2 [D9 THCA, delta-9-tetrahydrocannabinolic acid]", "µg/mL", 1.35],
  ["C=C(C)[C@@H]1CCC(C)=C[C@H]1c1c(O)cc(CCC)cc1O", "µg/mL", 0.195],
  ["CCCCCc1cc(O)c(C/C=C(\\C)CCC=C(C)C)c(O)c1", "µg/mL", 4.67],
  ["CCCCCc1cc(O)c2c(c1)OC(C)(C)[C@@H]1CCC(C)=C[C@@H]21 [D9 THC, delta-9-tetrahydrocannabinol, reference compound]", "µg/mL", 12.8],
  ["C=C(C)[C@@H]1CCC(C)=C[C@H]1c1c(O)cc(CCCCC)c(C(=O)O)c1O", "µg/mL", 1.65]
]}

---

assay: Stability of cannabinoid compounds and Vitamin E components in Beverage 1 (AB White) by LCMSMS; format: physicochemical; conditions: AB White stored at 21-25° C.; 90 days
Grouping rule (Stability of Plant-Derived Cannabinoid Compounds in AB White, 21-25° C.): class A (below 0.5 µg/mL), class B (0.5 µg/mL to below 3 µg/mL), class C (3 µg/mL or more)

{"columns": ["Compound", "Group label"],
 "data": [
  ["CCCCCc1cc2c(c(O)c1C(=O)O)[C@@H]1C=C(C)CC[C@H]1C(C)(C)O2 [D9 THCA, delta-9-tetrahydrocannabinolic acid]", "class B"],
  ["C=C(C)[C@@H]1CCC(C)=C[C@H]1c1c(O)cc(CCC)cc1O", "class A"],
  ["CCCCCc1cc(O)c(C/C=C(\\C)CCC=C(C)C)c(O)c1", "class C"],
  ["CCCCCc1cc(O)c2c(c1)OC(C)(C)c1ccc(C)cc1-2", "class B"],
  ["C=C(C)[C@@H]1CCC(C)=C[C@H]1c1c(O)cc(CCCCC)c(C(=O)O)c1O", "class B"],
  ["CCCc1cc(O)c2c(c1)OC(C)(C)[C@@H]1CCC(C)=C[C@@H]21 [THCV, delta-9-tetrahydrocannabivarin]", "class C"],
  ["CCCCCc1cc(O)c2c(c1)OC(C)(C)[C@@H]1CCC(C)=C[C@@H]21 [D9 THC, delta-9-tetrahydrocannabinol, reference compound]", "class C"],
  ["CCCCCc1cc(O)c2c(c1)OC1(C)CCC3C1C2C3(C)C (stereo not drawn)", "class B"],
  ["CCCCCc1cc(O)c2c(c1)OC(C)(CCC=C(C)C)C=C2 (stereo not drawn)", "class A"]
]}
